STUDY_TARGET: Disintegrin and metalloproteinase domain-containing protein 17 (Sus scrofa, UniProt O77636)
Sequence (O77636 whole entry, the tested form may be a part): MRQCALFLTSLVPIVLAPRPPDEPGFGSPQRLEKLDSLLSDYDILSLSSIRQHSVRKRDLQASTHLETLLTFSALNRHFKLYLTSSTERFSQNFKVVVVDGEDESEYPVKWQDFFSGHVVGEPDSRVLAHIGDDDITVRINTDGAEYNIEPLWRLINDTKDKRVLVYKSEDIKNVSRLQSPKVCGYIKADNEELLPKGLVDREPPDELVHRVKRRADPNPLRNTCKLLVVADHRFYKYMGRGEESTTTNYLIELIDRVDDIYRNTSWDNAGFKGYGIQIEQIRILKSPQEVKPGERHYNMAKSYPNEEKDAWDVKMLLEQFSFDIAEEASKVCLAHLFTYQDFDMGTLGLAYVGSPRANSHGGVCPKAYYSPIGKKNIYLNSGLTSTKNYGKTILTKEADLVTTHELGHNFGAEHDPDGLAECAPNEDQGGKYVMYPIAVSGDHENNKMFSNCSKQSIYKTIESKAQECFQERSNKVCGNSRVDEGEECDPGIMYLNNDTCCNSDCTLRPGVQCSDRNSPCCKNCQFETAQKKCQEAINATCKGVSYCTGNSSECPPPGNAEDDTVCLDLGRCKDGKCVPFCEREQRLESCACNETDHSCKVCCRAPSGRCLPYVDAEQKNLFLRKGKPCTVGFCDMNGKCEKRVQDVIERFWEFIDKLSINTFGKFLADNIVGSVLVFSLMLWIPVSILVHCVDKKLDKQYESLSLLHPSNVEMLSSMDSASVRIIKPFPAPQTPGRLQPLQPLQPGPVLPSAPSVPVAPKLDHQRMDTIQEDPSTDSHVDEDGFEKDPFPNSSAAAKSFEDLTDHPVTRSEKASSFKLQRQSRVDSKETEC
compounds and their reported pIC50
pIC50 (log units): -log10 of the concentration in mol/L.

{"columns": ["SMILES_STR", "DATA_VALUE"],
 "data": [
  ["Cc1cc(COc2ccc(C(=O)N[C@@H]3C[C@]4(CCCO4)C[C@@H]3C(=O)NO)cc2)c2ccccc2n1", 9.00]
]}

Value of pIC50 reported for the compound Cc1cc(COc2ccc(C(=O)N[C@@H]3C[C@@]4(CCCO4)C[C@@H]3C(=O)NO)cc2)c2ccccc2n1 is 9.00

----------
Ki overview
STUDY_TARGET: Interstitial collagenase (Homo sapiens)
Sequence (P03956 whole entry): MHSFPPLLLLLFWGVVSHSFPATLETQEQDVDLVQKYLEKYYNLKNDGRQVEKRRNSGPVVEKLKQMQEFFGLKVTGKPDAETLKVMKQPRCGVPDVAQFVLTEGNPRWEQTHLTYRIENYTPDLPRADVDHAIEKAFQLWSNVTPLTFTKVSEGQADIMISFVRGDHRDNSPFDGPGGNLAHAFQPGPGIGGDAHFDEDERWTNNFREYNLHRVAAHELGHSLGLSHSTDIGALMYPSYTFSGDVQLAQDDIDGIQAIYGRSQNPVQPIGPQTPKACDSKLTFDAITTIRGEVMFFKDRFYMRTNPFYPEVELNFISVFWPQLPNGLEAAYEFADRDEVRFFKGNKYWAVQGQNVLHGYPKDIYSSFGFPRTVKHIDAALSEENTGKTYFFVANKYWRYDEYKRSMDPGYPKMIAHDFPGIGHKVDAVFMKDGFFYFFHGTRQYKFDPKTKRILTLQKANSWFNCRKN
PROTOCOL_TEXT: Inhibition of MMP1

{"columns": ["SMILES_STR", "STUDY_TARGET", "Ki"],
 "data": [
  ["Cc1cc(COc2ccc(C(=O)N[C@@H]3C[C@@]4(CCCO4)C[C@@H]3C(=O)NO)cc2)c2ccccc2n1", "Interstitial collagenase (Homo sapiens)", "> 4.95 µM"]
]}

Field: next molecule
Quick note, Ki for Cc1cc(COc2ccc(C(=O)N[C@@H]3C[C@]4(CCCO4)C[C@@H]3C(=O)NO)cc2)c2ccccc2n1 landed at > 4.95 µM
